Tested on: Mycobacterium kansasii
Assay: Antimycobacterial activity against Mycobacterium kansasii 6509/96 after 7 days by micromethod
Format: functional
Conditions: 6509/96, 168 h
Could you please report measured MIC for the items listed next?
API: value field is a number in µM; no unit string.

Exercise: Identify the reported MIC for the following entry. COc1ccc(-n2nnnc2S(=O)(=O)Cc2cc([N+](=O)[O-])cc([N+](=O)[O-])c2)cc1
Key: 125

Exercise: Identify the reported MIC for the following entry. O=[N+]([O-])c1cc(C[Se]c2nnnn2-c2ccccc2)cc([N+](=O)[O-])c1
Key: 16

Exercise: Identify the reported MIC for the following entry. O=[N+]([O-])c1cc(CSc2cccc[n+]2[O-])cc([N+](=O)[O-])c1
Key: 125

Exercise: Identify the reported MIC for the following entry. O=[N+]([O-])c1ccc(C[Se]c2nnnn2C2CCCCC2)c([N+](=O)[O-])c1
Key: 16

Exercise: Identify the reported MIC for the following entry. O=[N+]([O-])c1cc(CSc2nnnn2-c2ccc(F)cc2)cc([N+](=O)[O-])c1
Key: 4

Exercise: Identify the reported MIC for the following entry. COc1cc(-n2nnnc2OCc2cc([N+](=O)[O-])cc([N+](=O)[O-])c2)cc(OC)c1OC
Key: 16

Exercise: Identify the reported MIC for the following entry. NNC(=O)c1ccncc1 [ISONIAZID]
Key: 4

Exercise: Identify the reported MIC for the following entry. CCN(CC)c1ccc(-n2nnnc2SCc2cc([N+](=O)[O-])cc([N+](=O)[O-])c2)cc1
Key: 8

Exercise: Identify the reported MIC for the following entry. COc1ccc(-n2nnnc2SCc2cc(N)cc([N+](=O)[O-])c2)cc1
Key: 250

Exercise: Identify the reported MIC for the following entry. CSCc1cc([N+](=O)[O-])cc([N+](=O)[O-])c1
Key: 125
